Attribution: paper PMC6321168

Assay: Urinary excretion study in rats after oral NS, SF or CNS (LC–MS/MS)
Assay type: in vivo
Conditions: male, Sprague Dawley, rat, urine, oral, 60 mg/kg, oral NS 60 mg/kg, 96 h
concentration at 96 h for assorted compounds

- compound: "CC(C)=CCC[C@](C)(O[C@@H]1O[C@H](CO)[C@@H](O)[C@H](O)[C@H]1O)[C@H]1CC[C@]2(C)[C@@H]1[C@H](O)C[C@@H]1[C@@]3(C)CC[C@H](O)C(C)(C)[C@@H]3[C@@H](O[C@@H]3O[C@H](CO)[C@@H](O)[C@H](O)[C@H]3O[C@@H]3O[C@@H](C)[C@H](O)[C@@H](O)[C@H]3O)C[C@]12C [ginsenoside Re]"
  concentration at 96 h [ng/mL]: 7
- compound: "CC(C)=CCC[C@](C)(O[C@@H]1O[C@H](CO)[C@@H](O)[C@H](O)[C@H]1O)[C@H]1CC[C@]2(C)[C@@H]1[C@H](O)C[C@@H]1[C@@]3(C)CC[C@H](O)C(C)(C)[C@@H]3[C@@H](O[C@@H]3O[C@H](CO)[C@@H](O)[C@H](O)[C@H]3O)C[C@]12C [ginsenoside Rg1]"
  concentration at 96 h [ng/mL]: 85
- compound: "CC(C)=CCC[C@](C)(O[C@@H]1O[C@H](CO)[C@@H](O)[C@H](O)[C@H]1O)[C@H]1CC[C@]2(C)[C@@H]1[C@H](O)C[C@@H]1[C@@]3(C)CC[C@H](O[C@@H]4O[C@H](CO)[C@@H](O)[C@H](O)[C@H]4O[C@@H]4O[C@H](CO)[C@@H](O)[C@H](O)[C@H]4O)C(C)(C)[C@@H]3CC[C@]12C [ginsenoside Rd]"
  concentration at 96 h [ng/mL]: 6
- compound: "CC(C)=CCC[C@](C)(O[C@@H]1O[C@H](CO[C@@H]2O[C@H](CO)[C@@H](O)[C@H](O)[C@H]2O)[C@@H](O)[C@H](O)[C@H]1O)[C@H]1CC[C@]2(C)[C@@H]1[C@H](O)C[C@@H]1[C@@]3(C)CC[C@H](O[C@@H]4O[C@H](CO)[C@@H](O)[C@H](O)[C@H]4O[C@@H]4O[C@H](CO)[C@@H](O)[C@H](O)[C@H]4O)C(C)(C)[C@@H]3CC[C@]12C [ginsenoside Rb1]"
  concentration at 96 h [ng/mL]: 45
